Target: DOR (Delta Opioid Receptor) (Homo sapiens, UniProt P41143)
Construct: expressed in transfected cells
Sequence (P41143 whole entry): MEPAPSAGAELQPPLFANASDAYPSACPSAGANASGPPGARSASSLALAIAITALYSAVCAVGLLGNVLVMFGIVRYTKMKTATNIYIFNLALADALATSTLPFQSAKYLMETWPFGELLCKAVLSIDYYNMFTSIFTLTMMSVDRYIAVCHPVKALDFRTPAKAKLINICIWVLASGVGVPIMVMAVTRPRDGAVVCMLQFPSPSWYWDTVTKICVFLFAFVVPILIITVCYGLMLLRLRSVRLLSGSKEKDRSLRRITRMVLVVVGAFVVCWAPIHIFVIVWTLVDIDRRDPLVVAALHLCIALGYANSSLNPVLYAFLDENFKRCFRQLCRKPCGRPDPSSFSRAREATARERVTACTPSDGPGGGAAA
Assay: cAMP agonistic activity assay, DOR stably transfected cell line
Assay type: cell-based
Protocol: 1. Test purpose: to detect the agonistic activity of compound samples utilizing MOR (Mu opioid Receptor), KOR(Kappa opioid receptor), and DOR (Delta Opioid Receptor) stably transfected cell lines and using the established cAMP assay detection platform. a. All samples were dissolved with DMSO to a storage concentration of 30 mM. b. A sample dilution sequence was prepared on a 384-well LDV plate. […] f. The test plates were read on the Envision after being left for 60 minutes at room temperature.
Recorded pEC50 by entry
Bear in mind: pEC50 is minus log10 of a mol/L concentration; give just that figure.

Please review the following examples before continuing.
Exercise: Return pEC50 for the following molecule: c1ccc([C@]2(CCNCc3coc4ccccc34)CCOC3(CCCC3)C2)nc1
Key: 4.65

Exercise: Return pEC50 for the following molecule: COc1ccsc1CNCC[C@@]1(c2ccccn2)CCOC2(CCCC2)C1 [TRV130, oliceridine, reference compound]
Key: 5.50

Now look at this one.
Exercise: Return pEC50 for the following molecule: COc1ccc2occ(CNCC[C@@]3(c4ccccn4)CCOC4(CCCC4)C3)c2c1
Key: 4.19
